Data origin, for the record: patent US20190064177A1

Here the recorded noFAD/FAD is given for each entry.
# System tested: Diaphorase
# Protocol notes: peptide array, 10 uM diaphorase, binding without FAD / with FAD
# answer = number (no unit)

Worked set:
| Binder | noFAD/FAD |
| --- | --- |
| RYNLYKPSDGSG | 2.77 |
| RFKYPLDGGSG | 1.84 |

The reported noFAD/FAD of the binder RQAYLFGGSG was 1.02

The reported noFAD/FAD of the binder LLGFLGGSG was 0.652

The reported noFAD/FAD of the binder RWSFPAKGGSG was 1.28

The reported noFAD/FAD of the binder RFGQNLPLGGSG was 1.83

The reported noFAD/FAD of the binder SVLEGYQAVFGGSG was 0.282

The reported noFAD/FAD of the binder ELFGALFKGGSG was 0.511

The reported noFAD/FAD of the binder VFGVLSQVARDGSG was 0.509

The reported noFAD/FAD of the binder VLSLNQVYSEGSG was 0.452

The reported noFAD/FAD of the binder QLLQLLFGGSG was 0.366

The reported noFAD/FAD of the binder YNRNAKSSGGSG was 2.23

The reported noFAD/FAD of the binder RYPWNKLYKFDGSG was 1.24

The reported noFAD/FAD of the binder LDRLGEYQFSGSG was 0.419

The reported noFAD/FAD of the binder VKDGANKHYWRVSGSG was 1.14

The reported noFAD/FAD of the binder YSVDYWYQVDGSG was 1.03
